Source of measurements: ChEMBL document CHEMBL1127290

biological target: 5-hydroxytryptamine receptor 1A (Rattus norvegicus, UniProt P19327); assay: Tested for the binding affinity against the site labelled by the 5-hydroxytryptamine 1A receptor agonist [3H]- 8-OH-DPAT
Sequence (P19327 whole entry): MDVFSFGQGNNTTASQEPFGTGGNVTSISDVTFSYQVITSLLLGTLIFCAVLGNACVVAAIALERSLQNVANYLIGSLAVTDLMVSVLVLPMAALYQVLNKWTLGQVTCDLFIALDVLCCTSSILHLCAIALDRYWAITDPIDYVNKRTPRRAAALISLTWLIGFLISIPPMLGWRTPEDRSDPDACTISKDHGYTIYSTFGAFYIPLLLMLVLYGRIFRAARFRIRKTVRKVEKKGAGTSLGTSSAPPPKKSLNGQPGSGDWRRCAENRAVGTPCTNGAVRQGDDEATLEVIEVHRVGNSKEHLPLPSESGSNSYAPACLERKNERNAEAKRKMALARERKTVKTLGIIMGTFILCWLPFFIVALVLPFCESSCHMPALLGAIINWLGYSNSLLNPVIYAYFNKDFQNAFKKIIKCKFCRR
Assay Endpoint: pKi
Friendly reminder that pKi comes from taking -log10 of the concentration in mol/L.

Q. GET /values?readout=pKi&system=5-hydroxytryptamine receptor 1A (Rattus norvegicus, UniProt P19327)&item= COc1cc(C(F)(F)F)c(OC)cc1CC(C)N (configuration not stated)
A. 5.65

Q. GET /values?readout=pKi&system=5-hydroxytryptamine receptor 1A (Rattus norvegicus, UniProt P19327)&item= COc1cc(C(F)(F)F)c(OC)cc1CCN
A. 5.47
